Values compiled from paper PMC9230651.

Test system: H1975
method summary: MTT assay, antiproliferative activity against H1975
Assay type: cell-based, human
cond: 72 h
experimental readout: IC50
Please format your answer as a value with the unit trailing.

Entry O=c1[nH]cc(F)c(=O)[nH]1 [5-Fu, reference compound] ; IC50 = 2680 nM

---

Reported IC50 values for a set of compounds
System: H1975
method summary: MTT assay, antiproliferative activity against H1975
Type: cell-based, human
cond: Homo sapiens, NCI-H1975, 72 h
// units = µM; emit number, no label

Example entries begin here.
Measured IC50 for this entry c1ccc(-c2nc(Nc3cccc4ccccc34)c3ccccc3n2)cc1 [compound 15] on H1975: 10.4

Record for O=C(/C=C/c1ccc(Cl)cc1)c1ccc(Nc2nc(-c3ccccc3)nc3ccccc23)cc1 [compound 17] under target or system H1975: IC50 reported as 4.75

The reported IC50 value, H1975, for Clc1ccc(Nc2nc(-c3ccccc3)nc3ccccc23)cc1 [compound 8] reads 10.6

---
Observed IC50 on H1975, entry COc1cc(Nc2nc(-c3ccccc3)nc3ccccc23)cc(OC)c1OC [compound 14] , equals 13.2

Record Cc1ccc(Nc2nc(-c3ccccc3)nc3ccccc23)cc1 [compound 12, 2-Phenyl-N-(p-tolyl)quinazolin-4-amine] / H1975, IC50 recorded as 19.4

For O=[N+]([O-])c1ccc(Nc2nc(-c3ccccc3)nc3ccccc23)cc1 [compound 10] on H1975, measured IC50 was 25.8

Log: H1975, compound Fc1ccc(Nc2nc(-c3ccccc3)nc3ccccc23)cc1 [compound 7] , IC50 = 12.6

Case O=C(/C=C/c1ccc(F)cc1)c1ccc(Nc2nc(-c3ccccc3)nc3ccccc23)cc1 [compound 16] , H1975, IC50 recorded as 3.67

Record c1ccc(Nc2nc(-c3ccccc3)nc3ccccc23)cc1 [compound 6, N,2-Diphenylquinazolin-4-amine] ; system H1975; IC50 = 20.1
